The following compounds are listed with their measured cell viability values.
- Test system: P12-Ichikawa
- Method summary: cell viability relative to DMSO control; higher = less cytotoxic
- Details: RPMI 5 mM glucose + 10% FBS; 48 h; 0.000781 µM

{"Compound": "[NH2][Pt]([NH2])([Cl])[Cl]", "cell viability": "86.2%"}
{"Compound": "CCOc1cc(N)c(Cl)cc1C(=O)NCC1CN(Cc2ccc(F)cc2)CCO1 (configuration not stated)", "cell viability": "107%"}
{"Compound": "O=C(Nc1cccc(Nc2ncc(Br)c(NCCc3cnc[nH]3)n2)c1)N1CCCC1", "cell viability": "98%"}
{"Compound": "CCN(CC)C(=S)SSC(=S)N(CC)CC", "cell viability": "103%"}
{"Compound": "Clc1cc(Cl)cc(CNc2ncncc2-c2ccc3c(c2)OCO3)c1", "cell viability": "97.6%"}
{"Compound": "OCc1ccc(-c2nn(Cc3ccccc3)c3ccccc23)o1", "cell viability": "117%"}
{"Compound": "COc1cc(Nc2ncc(F)c(Nc3ccc4c(n3)NC(=O)C(C)(C)O4)n2)cc(OC)c1OC", "cell viability": "114%"}
{"Compound": "COC[C@@H](NC(C)=O)C(=O)NCc1ccccc1", "cell viability": "94.8%"}
{"Compound": "CC(C)(C)C(=O)OCOP(=O)(COCCn1cnc2c(N)ncnc21)OCOC(=O)C(C)(C)C", "cell viability": "94.7%"}
{"Compound": "Cc1cccc(-c2nn(C(=S)Nc3ccccc3)cc2-c2ccnc3ccccc23)n1", "cell viability": "115%"}
{"Compound": "O=C(NC[C@H](O)CN1CCc2ccccc2C1)c1cc(NC2COC2)ncn1", "cell viability": "74%"}
{"Compound": "O=C1C[C@@H](c2ccc(O)cc2)Oc2cc(O)cc(O)c21", "cell viability": "125%"}
{"Compound": "CCC1(c2ccc(N)cc2)CCC(=O)NC1=O (configuration not stated)", "cell viability": "125%"}
{"Compound": "Cc1ncc(OC[C@@]2(c3cccc(F)c3)C[C@H]2C(=O)Nc2ccc(F)cn2)c(C)n1", "cell viability": "107%"}
{"Compound": "O=C(O)c1ccc(-n2nc(-c3ccccc3O)nc2-c2ccccc2O)cc1", "cell viability": "82.8%"}
{"Compound": "CC(C)C[C@H](NC(=O)[C@@H](NC(=O)c1cccc(-c2ccccc2)n1)[C@@H](C)O)B(O)O", "cell viability": "103%"}
{"Compound": "Cc1c(Cn2c(C)nc3c(C(=O)O)cc(N4CCOCC4)cc32)cccc1C(F)(F)F", "cell viability": "98.6%"}
{"Compound": "O=C1Nc2ccc(Cl)cc2[C@@](C#CC2CC2)(C(F)(F)F)O1", "cell viability": "78.3%"}
{"Compound": "C[C@H]1C[C@H]2[C@@H]3CCC4=CC(=O)C=C[C@]4(C)[C@@]3(F)[C@@H](O)C[C@]2(C)[C@@]1(O)C(=O)CO", "cell viability": "121%"}
{"Compound": "C\\C1=C\\C(=O)C2=C(C=CC=C2)C1=O", "cell viability": "107%"}
{"Compound": "O=C(/C=C/c1c(C(=O)[O-])[nH]c2cc(Cl)cc(Cl)c12)Nc1ccccc1", "cell viability": "98%"}
{"Compound": "C[C@@H]1COCCN1C\\2=C\\C(=O)N\\3CC[C@H](N(CC4=CN=CC(=C4)Cl)C3=N2)C(F)(F)F", "cell viability": "91.4%"}
{"Compound": "CCN(CC)CCCCNc1nc2cc(Cl)c(Cl)cc2nc1-c1ccc(-c2cccs2)s1", "cell viability": "99.9%"}
{"Compound": "CN(C)CCc1c[nH]c2ccc(C[C@H]3COC(=O)N3)cc12", "cell viability": "105%"}
{"Compound": "CC[C@H]1/C=C\\C=C/C[C@@H](C)[C@H](O)[C@@](C)(O)C(=O)[C@@H](C)[C@H](O)[C@@H](C)C(=O)[C@@H](C)[C@H](O)[C@@H](C)/C=C/C(=O)O[C@@H]2[C@H](C)[C@H](CC1)O[C@]1(CC[C@H](C)[C@H](C[C@@H](C)O)O1)[C@H]2C", "cell viability": "90.5%"}
{"Compound": "CCOC(=O)[C@H](CCc1ccccc1)N[C@@H](C)C(=O)N1CCC[C@H]1C(=O)O", "cell viability": "118%"}
{"Compound": "CCCCCCCc1ccc(CCc2cccc(O)c2C(=O)O)cc1", "cell viability": "125%"}
